Tested on: SKVBL (MDR variant of SKOV3)
Test: Cytotoxicity by counting cells after 72 h, MDR variant cells
Type: cell-based, human
Conditions: Homo sapiens, SK-OV-3; Ovarian Carcinoma SKOV3, Resistant (SKVBL); 72 h; mean of at least three independent experiments
This section presents compounds with their documented IC50 values.
Field format: number, assumed nM, no unit text.

| compound | tested-target | IC50, nM |
| --- | --- | --- |
| CO[C@]12C=C[C@](C)(O1)[C@@H](OC(=O)/C=C/c1cn(C)cn1)C[C@H]1C(C)=CC[C@H](C(C)C)[C@H]1C=C2COC(C)=O [SKBII.294] | SKVBL (MDR variant of SKOV3) | 1040 |

Switching to the query record.
// fetch IC50 given entry CO[C@]12C=C[C@@H]3[C@@H](C(C)C)CC=C(C)[C@@H]3C[C@H](OC(=O)/C=C/c3cn(C)cn3)[C@](C)(C=C1)O2 [SKBII.296] 1350

* * *

This section presents compounds with their documented microtubule polymerization activity relative to eleutherobin values.
Test system: tubulin / microtubule protein
Experiment: Tubulin polymerization by turbidity at 350 nm in the absence of GTP
Format: biochemical, calf
Settings: 10 μM, relative to eleutherobin
Field format: number, assumed %, no unit text.

| record-smiles | data-value |
| --- | --- |
| CO[C@]12C=C[C@](C)(O1)[C@@H](OC(=O)/C=C/c1cn(C)cn1)C[C@H]1C(C)=CC[C@H](C(C)C)[C@H]1C=C2CO[C@H]1OC[C@H](O)[C@H](O)[C@H]1OC(C)=O | 69 |

// fetch microtubule polymerization activity relative to eleutherobin given entry CO[C@]12C=C[C@](C)(O1)[C@@H](OC(=O)/C=C/c1cn(C)cn1)C[C@H]1C(C)=CC[C@H](C(C)C)[C@H]1C=C2CO 36

// fetch microtubule polymerization activity relative to eleutherobin given entry CO[C@]12C=C[C@@H]3[C@@H](C(C)C)CC=C(C)[C@@H]3C[C@H](OC(=O)/C=C/c3cn(C)cn3)[C@](C)(C=C1)O2 54

// fetch microtubule polymerization activity relative to eleutherobin given entry CO[C@]12C=C[C@](C)(O1)[C@@H](OC(=O)/C=C/c1cn(C)cn1)C[C@H]1C(C)=CC[C@H](C(C)C)[C@H]1C=C2COC(C)=O 54

* * *

System: Human non-small cell lung carcinoma cells, A549
Assay: Cytotoxicity by counting cells after 72 h, Taxol-sensitive cells
Format: cell-based
Settings: Homo sapiens, A549, 72 h
Experimental: Taxol-resistant and sensitive cell lines were seeded into 12-well plates at a density of 5×10^4 cells per well and allowed a period of 12 h for attachment prior to treatment. […] Cells were then trypsinized and counted (Coulter counter model ZF0031, Coulter Corp., Miami, Fla.).
This section presents compounds with their documented pIC50 values.
# pIC50: negative log10 of molar concentration; output just the value

Worked set:
| compound | data-value |
| --- | --- |
| CO[C@]12C=C[C@@H]3[C@@H](C(C)C)CC=C(C)[C@@H]3C[C@H](OC(=O)/C=C/c3cn(C)cn3)[C@](C)(C=C1)O2 [SKBII.296] | 6.40 |
| CO[C@]12C=C[C@](C)(O1)[C@@H](OC(=O)/C=C/c1cn(C)cn1)C[C@H]1C(C)=CC[C@H](C(C)C)[C@H]1/C=C\2CO[C@@H]1OC[C@@H](O)[C@@H](O)[C@@H]1OC(C)=O [Eleutherobin] | 8.22 |
| CO[C@]12C=C[C@](C)(O1)[C@@H](OC(=O)/C=C/c1cn(C)cn1)C[C@H]1C(C)=CC[C@H](C(C)C)[C@H]1C=C2CO[C@H]1OC[C@H](O)[C@H](O)[C@H]1OC(C)=O [Neo-Eleutherobin] | 6.90 |
| CO[C@]12C=C[C@](C)(O1)[C@@H](OC(=O)/C=C/c1cn(C)cn1)C[C@H]1C(C)=CC[C@H](C(C)C)[C@H]1C=C2CO [SKBII.298] | 5.98 |
| CO[C@]12C=C[C@](C)(O1)[C@@H](OC(=O)/C=C/c1cn(C)cn1)C[C@H]1C(C)=CC[C@H](C(C)C)[C@H]1C=C2COC(C)=O [SKBII.294] | 6.82 |

Switching to the query record.
// fetch pIC50 given entry CC(=O)O[C@H]1C(=O)[C@@]2(C)[C@H]([C@H](OC(=O)c3ccccc3)[C@]3(O)C[C@H](OC(=O)[C@H](O)[C@@H](NC(=O)c4ccccc4)c4ccccc4)C(C)=C1C3(C)C)[C@]1(OC(C)=O)CO[C@@H]1C[C@@H]2O [Taxol, reference compound] 8.70
